tgt: D(3) dopamine receptor (Homo sapiens) (UniProt P35462)
Sequence (P35462 whole entry, looked up): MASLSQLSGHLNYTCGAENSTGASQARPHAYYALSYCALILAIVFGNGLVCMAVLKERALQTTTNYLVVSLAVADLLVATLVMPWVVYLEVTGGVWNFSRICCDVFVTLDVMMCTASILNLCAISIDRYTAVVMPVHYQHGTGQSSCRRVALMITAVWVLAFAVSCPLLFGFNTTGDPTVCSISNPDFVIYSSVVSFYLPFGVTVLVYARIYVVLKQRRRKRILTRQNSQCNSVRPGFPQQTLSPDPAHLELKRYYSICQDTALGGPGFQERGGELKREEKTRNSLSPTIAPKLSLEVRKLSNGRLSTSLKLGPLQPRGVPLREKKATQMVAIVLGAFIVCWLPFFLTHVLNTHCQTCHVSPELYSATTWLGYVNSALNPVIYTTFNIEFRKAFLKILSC
experiment-summary: qHTS of D3 Dopamine Receptor Antagonist: qHTS
settings: D3R cells, DiscoveRx beta-arrestin luminescence, antagonist mode
The whole screen tested about 360,000 compounds, of which about 9,100 (2.5%) were called active. Roughly 4% stayed inconclusive and do not appear here. No stated cut-off is given here; in the data, active means max response below about -50%; inconclusive means no clear call, values can overlap the other calls; inactive means above that. This is one part of a sample in which actives are shown more often than they occur.
Outcome codes: True (active), False (inactive)

O=C(COc1cc2oc(=O)c3c(c2cc1Cl)CCC3)NCCCN1CCOCC1	False
NC(=O)CSc1nnc(NC(=O)c2ccc(Br)o2)s1	False
COc1cccc(CNC(=O)Cc2csc(Nc3nc(=S)[nH]c4ccccc34)n2)c1	False
Cc1cccc(CS(=O)(=O)c2ncc(Cl)c(C(=O)Nc3ccc(F)cc3)n2)c1	True
Cn1c(C(=O)NCCCN2CCN(c3cccc(Cl)c3)CC2)cc2c(=O)n(C)c3ccccc3c21	True
O=C(NCCCN1CCOCC1)c1cc(-c2ccc(Cl)cc2)on1	False
O=C(CCCn1c(=O)[nH]c2cc(Cl)ccc2c1=O)NCCN1CCN(c2ccccc2)CC1	False
O=C(Cc1ccc(-n2c(=O)[nH]c3ccccc3c2=O)cc1)N1CCN(c2cccc(Cl)c2)CC1	False
COCCSc1nnc(NC(=O)CCS(=O)(=O)Cc2ccccc2)s1	False
Cc1nnc(NC(=O)c2ccc3nccnc3c2)s1	False
